From: ChEMBL document CHEMBL4118218

target: UDP-N-acetylglucosamine 1-carboxyvinyltransferase 1 (Staphylococcus aureus subsp. aureus N315); test: Inhibition of GST-tagged Staphylococcus aureus MurA expressed in Escherichia coli BL21(DE3) cells preincubated with PEP and enzyme for 10 mins followed by UDP-GlcNAc addition measured after 3 hrs by HPLC analysis
Sequence (P84058 whole entry): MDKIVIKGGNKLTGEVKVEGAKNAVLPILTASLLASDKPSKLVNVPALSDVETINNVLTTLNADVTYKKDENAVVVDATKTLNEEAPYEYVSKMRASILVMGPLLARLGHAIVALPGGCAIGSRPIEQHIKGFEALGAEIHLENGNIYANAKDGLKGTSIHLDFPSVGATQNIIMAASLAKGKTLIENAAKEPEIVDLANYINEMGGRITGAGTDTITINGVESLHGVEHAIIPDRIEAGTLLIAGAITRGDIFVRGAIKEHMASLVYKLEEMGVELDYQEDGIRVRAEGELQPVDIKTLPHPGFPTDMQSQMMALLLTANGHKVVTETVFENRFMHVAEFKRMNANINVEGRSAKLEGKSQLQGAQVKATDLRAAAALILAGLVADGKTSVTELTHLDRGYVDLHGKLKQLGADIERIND
observed property: IC50 (µM)

In [3]: df
Out[3]:
                                  structure  observed_property  recorded_number
0  CO[C@H]1/C=C/[C@@](C)(O)/C=C/C(=O)O[C@H](C)[C@@H](C)CC/C=C/1C               IC50              480
